# target: MASP-2 CCP2-SP (Homo sapiens (Human))
# assay_procedure: MASP-2 co-crystallization, X-ray crystallography and structure analysis (H-bonds, van der Waals contacts)
# Design: unit not given beside the values
# stated_conditions: Table A2-13; MASP-2 TRP 655 CE3; compound atom in line below
Where a name gives a salt, the structure may show the parent alone.
recorded_metric: van der Waals contact distance TRP 655 atom CE3
Give a plain numeric answer without units written out.

>>> df
                                   molecule  measured_result
0  Cc1nc(N)ccc1CNC(=O)[C@H](C)NC(=O)[C@H]1C[C@H](Cc2ccccc2-c2ccccc2)CN1 [compound 1373, Di-trifluoroacetate salt]             3.65
1  C[C@H](NC(=O)[C@H]1C[C@@H](c2ccccc2)CCN1)C(=O)NCc1cnc2[nH]cc(Cl)c2c1             3.59
2  Cc1cnc(NCCc2ccccc2)c(=O)n1CC(=O)NCc1ccc2nc(N)[nH]c2c1             3.74

Could you now look at the following molecule, please?
Inquiry: Fill in reported van der Waals contact distance TRP 655 atom CE3 for this entry: Cc1nc(N)ccc1CNC(=O)[C@H](C)NC(=O)[C@H]1C[C@@H](c2ccccc2)CCN1 [compound 1253, Dihydrochloride]
Reply text: 3.61

###

# target: MASP-2 CCP2-SP (Homo sapiens (Human), UniProt O00187)
# Sequence (O00187 445-686): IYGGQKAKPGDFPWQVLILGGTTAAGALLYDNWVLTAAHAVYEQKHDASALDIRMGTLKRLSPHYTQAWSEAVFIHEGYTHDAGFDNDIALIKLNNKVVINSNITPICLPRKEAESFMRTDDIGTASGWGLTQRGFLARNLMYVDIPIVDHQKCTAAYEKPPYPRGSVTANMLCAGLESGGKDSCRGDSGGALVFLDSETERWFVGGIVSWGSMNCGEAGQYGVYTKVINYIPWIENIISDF
# Sequence (O00187 364-432 partner): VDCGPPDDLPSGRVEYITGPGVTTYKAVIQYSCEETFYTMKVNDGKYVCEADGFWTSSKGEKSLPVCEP
# assay_procedure: MASP-2 co-crystallization, X-ray crystallography and structure analysis (H-bonds, van der Waals contacts)
# Set-up: unit not given beside the values
# stated_conditions: Table A2-14; MASP-2 GLY 656 O
recorded_metric: van der Waals contact distance GLY 656 atom O
Give a plain numeric answer without units written out.

                                   molecule                                    target  measured_result
0  C[C@H](NC(=O)[C@H]1C[C@@H](c2ccccc2)CN1)C(=O)NCc1ccc2c(N)nccc2c1 [compound 1089]  MASP-2 CCP2-SP (Homo sapiens (Human), UniProt O00187)             2.95
1  C[C@H](NC(=O)[C@H](N)CCc1ccccc1)C(=O)NCc1ccc(N)nc1 [compound 1007]  MASP-2 CCP2-SP (Homo sapiens (Human), UniProt O00187)             3.85
2  C[C@H](NC(=O)[C@H]1C[C@H](c2ccccc2)CN1)C(=O)NCc1ccc(C(=N)N)cc1 [compound 1036]  MASP-2 CCP2-SP (Homo sapiens (Human), UniProt O00187)             3.55

Inquiry: Fill in reported van der Waals contact distance GLY 656 atom O for this entry: CNC(=O)c1ccc2c(=O)n(Cc3ccccc3)c(=O)n(CC(=O)NCc3ccc(C(=N)N)cc3)c2c1 [compound 2018]
Reply text: 3.3

Inquiry: Fill in reported van der Waals contact distance GLY 656 atom O for this entry: C[C@H](NC(=O)[C@H](N)CCc1cccc(Cl)c1)C(=O)NCc1ccc(C(=N)N)cc1 [compound 1081]
Reply text: 3.81

###

Ligand-pharmacophore element distance, pharmacophore element C5 values by entry
# target: UniProt:O00187
# assay_procedure: MASP-2 co-crystallization, X-ray crystallography and structure analysis (H-bonds, van der Waals contacts)
# stated_conditions: Table A4-1; element C5
Counter-ions that a name gives are not always drawn.
Give a plain numeric answer without units written out.

Worked cases, Ligand-pharmacophore element distance, pharmacophore element C5 given:
In [3]: df
Out[3]:
                                   molecule          target  measured_result
0  Cc1nc(N)ccc1CNC(=O)[C@H](C)NC(=O)[C@H]1C[C@@H](c2ccccc2)CCN1 [compound 1253, Dihydrochloride]  UniProt:O00187                0
1  C[C@H](NC(=O)[C@H](N)C1Cc2ccccc2C1)C(=O)NCc1ccc2c(N)nccc2c1.Cl.Cl [1088_A]  UniProt:O00187                0
2  Cc1nc(N)ccc1CNC(=O)[C@H](C)NC(=O)[C@H]1C[C@@H](c2cccc3ccccc23)CCN1.Cl.Cl [1297_5]  UniProt:O00187                0
3  C[C@H](NC(=O)[C@@H](CCc1ccccc1)NCc1ccc(C(=O)N2CCOCC2)cc1)C(=O)NCc1ccc(C(=N)N)cc1.Cl.Cl [1153_B]  UniProt:O00187                0
4  C[C@H](NC(=O)[C@H]1C[C@@H](c2ccccc2)CCN1)C(=O)NCc1cc(Cl)ccc1O.Cl [1078_12]  UniProt:O00187             0.52

Inquiry: Fill in reported Ligand-pharmacophore element distance, pharmacophore element C5 for this entry: CC(=O)Nc1ccc(CCNC(CCc2ccccc2)C(=O)NC(C)C(=O)NCc2ccc(C(=N)N)cc2)cc1.Cl.Cl (centres unmarked) [1345_2]
Reply text: 0
